From: the SangsterLogP compilation

Value Kind: logP

>>> df
                                   compound  endpoint_result
0  CC1=C(C(=O)O)N2C(=O)C(NC(=O)Cc3ccc(-c4c(Cl)cccc4Cl)o3)C2SC1 (stereo not given)              3.6
1  CC(=O)OCC1=C(C(=O)O)N2C(=O)C(NC(=O)Cc3ccc(-c4c(Cl)cccc4Cl)o3)C2SC1 (stereo not given)             2.78

a = CC1=C(C(=O)O)N2C(=O)C(NC(=O)Cc3ccc(-c4ccccc4)o3)C2SC1 (stereo not given)
b = CC(=O)OCC1=C(C(=O)O)N2C(=O)C(NC(=O)Cc3ccc(-c4ccc(Cl)cc4)o3)C2SC1 (stereo not given)
query: I would appreciate it if you could say which entry, a or b , has the lower logP value. Your answer should be the label of the entry you select.
result: a
(a: 1.66, b: 2.76)

* * *

Value Kind: logP

I = CC1=C(C(=O)O)N2C(=O)C(NC(=O)Cc3ccc(-c4ccc(Cl)cc4)o3)C2SC1 (centres undefined)
II = CC1=C(C(=O)O)N2C(=O)C(NC(=O)Cc3ccco3)C2SC1 (centres undefined)
III = CC(=O)OCC1=C(C(=O)O)N2C(=O)C(NC(=O)Cc3ccco3)C2SC1 (centres undefined)
IV = CC(=O)OCC1=C(C(=O)O)N2C(=O)C(NC(=O)Cc3ccc([N+](=O)[O-])o3)C2SC1 (centres undefined)
query: Ascending sort, logP. List the labels, following the order given in the request.
result: II, III, IV, I
(II: -0.13, III: 0.09, IV: 0.72, I: 2.38)
